Provide the recorded IC50 for the entries that follow.
- System: L1210
- Test Summary: In vitro cytotoxic activity against L1210 murine leukemia cells
- Assay type: functional, cell-based
- Conditions: Mus musculus

* COc1cc2c(cc3c4c(cc5c(c42)OCO5)C(=O)N3CCCN(C)C)c(OC)c1OC(C)C | 4.3 µM
* COc1cc2cc3c4c(cccc4c2c(OC)c1OCc1ccccc1)C(=O)N3CCCC=O | 17.6 µM
* COc1ccc2cc3c4c(cc(OC)cc4c2c1)C(=O)N3CCC=O | 5.2 µM

I need IC50 for every entry listed below, if you could help.
1. COc1cc2cc3c4c(cccc4c2c(OC)c1OCc1ccccc1)C(=O)N3CCCCN(C)C
2. CN1C(=O)c2ccc(OCc3ccccc3)c3c2c1cc1cc(OCc2ccccc2)ccc13
3. COc1cc2c3c(cc4cc(OC)c(OCc5ccccc5)c(OC)c4c3c1)N(CCC=O)C2=O
4. COc1ccc(CN2C(=O)c3cc(OC)cc4c3c2cc2cc(OC)ccc24)cc1
5. COc1cc2c3c(cc4cc(OC)c(O)c(OC)c4c3c1)N(C)C2=O
6. COc1cc2c3c(cc4cc(OC)c(OCc5ccccc5)c(OC)c4c3c1)N(C)C2=O
7. CCOC(CCN1C(=O)c2cc(OC)cc3c2c1cc1ccc(OC)cc13)OCC
8. COc1cc2c3c(cc4ccc(O)cc4c3c1)N(CCCN(C)C)C2=O

1. 10.8 µM
2. 79.2 µM
3. 4.7 µM
4. 66.6 µM
5. 1.6 µM
6. > 10 µM
7. > 10 µM
8. 1.6 µM

I need IC50 for every entry listed below, if you could help.
1. COc1cc2c(cc3c4c(cc5c(c42)OCO5)C(=O)N3CCC=O)c(OC)c1OC(C)C
2. COc1ccc(CN2C(=O)c3cc(O)cc4c3c2cc2cc(OC)c(O)c(OC)c24)cc1
3. COc1ccc(CN2C(=O)c3cc(OC)cc4c3c2cc2cc(OC)c(OC)c(OC)c24)cc1
4. CCOC(CCN1C(=O)c2cc3c(c4c2c1cc1c(OC)c(OC(C)C)c(OC)cc14)OCO3)OCC
5. CCOC(CCCN1C(=O)c2cccc3c2c1cc1cc(OC)c(OCc2ccccc2)c(OC)c13)OCC

1: 7.8 µM; 2: 2.6 µM; 3: > 10 µM; 4: 16.3 µM; 5: 21.2 µM

I need IC50 for every entry listed below, if you could help.
1. COc1cc2cc3c4c(cccc4c2c(OC)c1O)C(=O)N3CCCCN(C)C
2. COc1ccc(CN2C(=O)c3cc(OCc4ccccc4)cc4c3c2cc2cc(OC)c(OCc3ccccc3)c(OC)c24)cc1
3. CCN(CC)CCN1C(=O)c2cc(OC)cc3c2c1cc1cc(OC)c(O)c(OC)c13
4. COc1cc2c3c(cc4cc(OC)c(O)c(OC)c4c3c1)N(CCCN(C)C)C2=O

1: 1.8 µM; 2: > 100 µM; 3: 2.3 µM; 4: 5.4 µM
